# EXPERIMENTAL TARGET: T1, Talin F3 W359A (mouse, UniProt P26039 309-405, limits assumed)
# T1 construct: domain: F3 sub-domain; As m1, with the mutation; also called talin (W359A) mutant
# T1 sequence (P26039 309-405 W359A limits assumed): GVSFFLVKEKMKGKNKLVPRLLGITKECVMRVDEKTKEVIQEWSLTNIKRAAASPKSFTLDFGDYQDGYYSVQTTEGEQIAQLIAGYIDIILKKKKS
# PROTOCOL TEXT: ITC, 1 mM peptide injected into 50 µM talin F3 W359A, 23 C, 200 mM Tris, 300 mM NaCl, pH 7.5
pKd: −log10 of the molar value. Non-standard residues stand in square brackets, D forms with d. No end group written: not given here. pY = N[C@@H](Cc1ccc(OP(=O)(O)O)cc1)C(=O)O

{"BINDER": "KKLLITIHDRKEFAKFEEERARAKWV[pY]SPLHYSAR (Integrin β3 tail residues N-terminal of W739, PIPKIγ residues C-terminal of it (numbered 740-746 in the deposited structure); also called β3 chimera; β3-integrin/PIPKIγ peptide) [β3/PIPKIγ chimeric peptide, wild type]", "pKd": 3.97}

meta.source: patent US20100210525A1
